system name: T1, recombinant human CTGF-Fc protein (Creative Biomart) (human)
T1 construct: Bought; also called human CTGF with a human IgG1 Fc Tag
T1 sequence (chain, as listed by the source limits assumed): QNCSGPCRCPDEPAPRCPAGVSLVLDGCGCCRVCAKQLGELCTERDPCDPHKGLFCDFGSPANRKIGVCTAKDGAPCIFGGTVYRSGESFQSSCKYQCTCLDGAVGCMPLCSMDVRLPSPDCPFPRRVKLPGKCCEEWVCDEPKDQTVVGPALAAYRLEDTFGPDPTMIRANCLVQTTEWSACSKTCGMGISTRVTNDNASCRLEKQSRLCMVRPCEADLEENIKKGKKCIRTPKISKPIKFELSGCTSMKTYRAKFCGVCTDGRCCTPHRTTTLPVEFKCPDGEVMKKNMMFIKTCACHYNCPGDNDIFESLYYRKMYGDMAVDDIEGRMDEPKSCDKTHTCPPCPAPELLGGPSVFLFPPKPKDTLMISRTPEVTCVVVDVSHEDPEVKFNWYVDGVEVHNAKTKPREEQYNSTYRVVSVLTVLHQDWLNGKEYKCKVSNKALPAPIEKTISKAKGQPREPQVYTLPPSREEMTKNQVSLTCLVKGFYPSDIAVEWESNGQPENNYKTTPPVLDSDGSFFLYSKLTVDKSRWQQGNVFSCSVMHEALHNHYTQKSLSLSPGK
procedure text: SPR (Biacore)
test readout: koff (s⁻¹)
Value expressed in s⁻¹; do not type the unit.

>  <binder>
lipocalin mutein of SEQ ID NO: 34 (designed binder, also called hNGAL mutein) QDSTSDLIPAPPLSKVPLQQNFQDNQFQGKWYVVGWAGNVILREDKQPFKMSATIYELKEDKSYDVTEVVFEQKKCHYIIKTFVPGSQPGEFTLGDIKSPPGETSTLVRVVSTNYNQHAMVFFKKVSQNREFFWITLYGRTKELTSELKENFIRFSKSLGLPENHIVFPVPIDQCIDG

>  <unit abbrev>
s⁻¹

>  <reported value>
0.000169

$$$$

input: Bench note: what koff did lipocalin mutein of SEQ ID NO: 36 (designed binder, also called hNGAL mutein) QDSTSDLIPAPPLSKVPLQQNFQDNQFQGKWYVVGWAGNVKLREDKQPAKMSATIYELKEDKSYDVTEVVFEQKKCHYIIKTFVPGSQPGEFTAGDIKSPPGYTSSLVRVVSTNYNQHAMVFFKKVGQNREFFWITLYGRTKELTSELKENFIRFSKSLGLPENHIVFPVPIDQCIDG show?
output: 6.95e-05
